target: GnRH receptor (Homo sapiens)
Sequence (P30968 whole entry, species assumed): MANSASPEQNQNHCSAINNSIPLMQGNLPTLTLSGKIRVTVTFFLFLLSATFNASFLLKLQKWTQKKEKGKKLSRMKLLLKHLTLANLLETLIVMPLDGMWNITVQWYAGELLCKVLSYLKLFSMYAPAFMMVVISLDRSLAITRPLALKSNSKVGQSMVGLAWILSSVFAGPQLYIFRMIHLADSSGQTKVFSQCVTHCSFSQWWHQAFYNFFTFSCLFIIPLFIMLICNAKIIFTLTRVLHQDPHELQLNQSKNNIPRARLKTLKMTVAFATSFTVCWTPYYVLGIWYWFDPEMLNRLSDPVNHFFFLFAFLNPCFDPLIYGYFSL
Quick reference: Ki of the listed items.

# molecule, experimental-result
measured = [
    ("COc1cccc(-c2c(C)n(Cc3ccccc3F)c3nc(C4(C)CCOC4=O)c(CN(C)Cc4ccco4)n3c2=O)c1 (stereo not drawn)", "< 1000 nM"),
    ("COc1cccc(-c2c(C)n(Cc3ccccc3F)c3nc(C(C)(C)C)c(CN(C)[C@H](C)c4ccccc4)n3c2=O)c1", "< 1000 nM"),
    ("Cc1c(-c2ccccc2F)c(=O)n2c(CN(C)CCc3ccccn3)c(C(C)(C)C)nc2n1Cc1ccccc1F", "< 1000 nM"),
    ("COc1cccc(-c2c(C)n(Cc3ccccc3F)c3nc(C4(C)CCOC4=O)c(CN(C)Cc4ccccc4)n3c2=O)c1 (stereo not drawn)", "< 1000 nM"),
    ("COc1cccc(-c2c(C)n(Cc3ccccc3F)c3nc(C(C)(C)C)c(CN(C)CCc4ccccn4)n3c2=O)c1", "< 1000 nM"),
]

[Q] State, for GnRH receptor (Homo sapiens), measured Ki of the molecule listed here: `COC(=O)C(C)(C)c1nc2n(Cc3ccccc3F)c(C)c(-c3cccc(OC)c3)c(=O)n2c1CN(C)Cc1ccco1`
[A] < 1000 nM

[Q] State, for GnRH receptor (Homo sapiens), measured Ki of the molecule listed here: `CC(=O)c1cccc(-c2c(C)n(Cc3ccccc3F)c3nc(C(C)(C)C)c(CN(C)CCc4ccccn4)n3c2=O)c1`
[A] < 1000 nM

[Q] State, for GnRH receptor (Homo sapiens), measured Ki of the molecule listed here: `CC(=O)c1cccc(-c2c(C)n(Cc3ccccc3F)c3nc(C(C)(C)C)c(CN(C)Cc4ccccc4)n3c2=O)c1`
[A] < 1000 nM

[Q] State, for GnRH receptor (Homo sapiens), measured Ki of the molecule listed here: `CCOC(=O)Cc1nc2n(Cc3ccccc3F)c(C)c(-c3cccc(OC)c3)c(=O)n2c1CN(C)CCc1ccccn1`
[A] < 1000 nM

From: patent US6537998B1
